target: human recombinant PDE4B1 enzyme (Homo sapiens (Human), UniProt Q07343); assay: Inhibition of PDE4B1 activity by cAMP HTRF assay; settings: human recombinant PDE4B1, cAMP 40 nM, pH 7.4
Sequence (Q07343 whole entry): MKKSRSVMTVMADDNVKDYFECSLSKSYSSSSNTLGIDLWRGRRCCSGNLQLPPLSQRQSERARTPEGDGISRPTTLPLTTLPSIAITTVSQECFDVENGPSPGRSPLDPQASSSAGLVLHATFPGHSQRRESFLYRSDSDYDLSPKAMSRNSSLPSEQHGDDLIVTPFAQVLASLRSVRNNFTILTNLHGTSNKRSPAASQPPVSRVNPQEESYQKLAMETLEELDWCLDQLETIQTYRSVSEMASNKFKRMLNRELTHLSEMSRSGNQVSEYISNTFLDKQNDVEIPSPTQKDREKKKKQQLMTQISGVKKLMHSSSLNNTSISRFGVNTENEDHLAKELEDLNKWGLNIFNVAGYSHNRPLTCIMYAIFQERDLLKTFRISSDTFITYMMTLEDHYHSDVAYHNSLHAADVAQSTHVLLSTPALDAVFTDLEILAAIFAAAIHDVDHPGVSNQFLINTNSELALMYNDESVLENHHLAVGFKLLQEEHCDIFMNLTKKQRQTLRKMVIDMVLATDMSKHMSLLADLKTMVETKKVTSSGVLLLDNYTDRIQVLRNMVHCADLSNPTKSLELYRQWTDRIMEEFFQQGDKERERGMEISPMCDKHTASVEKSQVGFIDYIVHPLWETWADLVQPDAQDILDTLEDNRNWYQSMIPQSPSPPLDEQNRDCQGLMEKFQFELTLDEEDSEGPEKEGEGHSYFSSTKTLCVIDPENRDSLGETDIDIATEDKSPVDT
pIC50: −log10 of the molar value.
REPORTED_METRIC: pIC50

compound="CSCOc1cc(/C=C/n2c(C)cc(=O)cc2C)ccc1OC(F)F [Example 90]" experimental_value=8.42
compound="CNC(=O)COc1cc(/C=C/n2c(C)cc(=O)cc2C)ccc1OC [Example 71]" experimental_value=5.85
compound="CCCCOc1cc(/C=C/n2c(C)cc(=O)cc2C)ccc1OC [Example 55]" experimental_value=7.27
compound="COc1ccc(/C=C/n2c(C)cc(=O)cc2C)cc1O[C@@H]1CCSC1 [Example 85]" experimental_value=8.42
compound="COc1ccc(/C=C/n2c(C)cc(=O)cc2C)cc1OC[S+](C)[O-] (centres unmarked) [Example 75]" experimental_value=6.54

[A] CCOC(=O)/C(=C\n1c(C)cc(=O)cc1C)c1ccc(OC)c(OCC2CC2)c1 [Example 113]
[B] CO/N=C(/Cn1c(C)cc(=O)cc1C)c1ccc(OC)c(OCC2CC2)c1 [Example 40]
Q) Which has the smaller recorded pIC50, A or B ? Response format: the label of the selected entry.
A) A
(A: 6.77, B: 8.17)

###

target: human recombinant PDE4B1 enzyme (Homo sapiens (Human), UniProt Q07343); assay: Inhibition of PDE4B1 activity by cAMP HTRF assay; conditions: human recombinant PDE4B1, cAMP 40 nM, pH 7.4
pIC50: −log10 of the molar value.
REPORTED_METRIC: pIC50

In the examples that follow, each entry is paired with its recorded pIC50.
compound="Cc1cc(=O)cc(C)n1/C=C/c1ccc(OC(F)F)c(O[C@H]2CC[S+]([O-])C2)c1 (single isomer, unassigned) [Example 98-1]" experimental_value=7.01
compound="COc1ccc(C(=O)Cn2c(C)cc(=O)cc2C)cc1OCC1CCC1 [Example 22]" experimental_value=7.70
compound="COc1ccc(/C=C/n2c(C)cc(=O)cc2C)cc1OC(C)C [Example 54]" experimental_value=7.59
compound="CC#C/C(=C\\n1c(C)cc(=O)cc1C)c1ccc(OC)c(OCC2CC2)c1 [Example 105]" experimental_value=8.52

[a] COc1ccc(C(=O)Cn2c(C)cc(=O)cc2C)cc1OCCSC [Example 35]
[b] COc1ccc(/C=C/n2c(C)cc(=O)cc2C)cc1OCC(C)C [Example 56]
[c] COc1ccc(C(=O)Cn2ccc(=O)cc2Cl)cc1OCC1CC1 [Example 47]
Q) Returns the items ordered by pIC50, from maximum to minimum. Answer format: list of labels, ordered as asked.
A) c, b, a
(c: 8.15, b: 7.80, a: 7.49)

###

molecular target: human recombinant PDE4B1 enzyme (Homo sapiens (Human), UniProt Q07343); test: Inhibition of PDE4B1 activity by cAMP HTRF assay; details: human recombinant PDE4B1, cAMP 40 nM, pH 7.4
pIC50: −log10 of the molar value.
REPORTED_METRIC: pIC50

Consider the worked cases shown below.
compound=COc1ccc(/C=C/n2c(C)cc(=O)cc2C)cc1OCC(C)(C)C reported_metric=pIC50 experimental_value=7.00
compound=COc1ccc(/C=C/n2c(C)cc(=O)cc2C)cc1OCCS(C)(=O)=O reported_metric=pIC50 experimental_value=6.80
compound=COc1ccc(/C=C/n2c(C)cc(=O)cc2C)cc1O[C@@H]1CCS(=O)(=O)C1 reported_metric=pIC50 experimental_value=7.11
compound=COc1ccc(/C=C/n2c(C)cc(=O)cc2C)cc1OC1CC=CC1 reported_metric=pIC50 experimental_value=7.95
compound=CCN(CC)C(=O)/C(=C\n1c(C)cc(=O)cc1C)c1ccc(OC)c(OCC2CC2)c1 reported_metric=pIC50 experimental_value=6.34
compound="COc1ccc(/C=C/n2c(C)cc(=O)cc2C)cc1OC1CCCO1 (stereo not shown)" reported_metric=pIC50 experimental_value=8.09

[P] COc1ccc(C(=O)Cn2ccc(=O)cc2)cc1OCC1CC1
[Q] COc1ccc(CCn2c(C)cc(=O)cc2C)cc1OCC1CC1
Q) Between these two entries, P and Q , state which has the higher pIC50. Choose, then provide that item's label.
A) P
(P: 6.77, Q: 5.92)

[1] COc1ccc(/C=C/n2c(C)cc(=O)cc2C)cc1OCC[S+](C)[O-] (stereo not shown)
[2] COc1ccc(C(=O)Cn2c(C)cc(=O)cc2C)cc1OCC1CC1
Q) Which shows the larger pIC50 value: 1 or 2 ? Reply with the label of the item you choose.
A) 2

[P] COc1ccc(C(=O)Cn2c(C)cc(=O)cc2C)cc1OCCS(C)(=O)=O
[Q] Cc1cc(=O)cc(C)n1/C=C/c1ccc(OC(F)F)c(O[C@@H]2CCSC2)c1
Q) Looking at P and Q , which one comes out lower in pIC50 terms? The response must carry the label of the picked entry.
A) P

[I] COc1ccc(C(=O)Cn2c(C)cc(=O)cc2C)cc1O
[II] COc1ccc(/C(=C/n2c(C)cc(=O)cc2C)C(N)=O)cc1OCC1CC1
Q) // compare measured pIC50, left I , right II , return larger Could you answer with the label of the item you picked?
A) II

###

target: human recombinant PDE4B1 enzyme (Homo sapiens (Human)); assay: Inhibition of PDE4B1 activity by cAMP HTRF assay; format: biochemical; conditions: human recombinant PDE4B1, cAMP 40 nM, pH 7.4
REPORTED_METRIC: IC50 (nM)

compound="COc1ccc(/C=C/n2c(C)cc(=O)cc2C)cc1O[C@H]1CC[S+]([O-])C1 (single isomer, unassigned) [Example 83-2]" reported_metric=IC50 experimental_value=106

[1] COc1ccc(C(=O)Cn2c(C)cc(=O)cc2C)cc1OC(C)C
[2] CO/N=C(\Cn1c(C)cc(=O)cc1C)c1ccc(OC)c(OCC2CC2)c1
Q) // select label with min value of measured IC50 from [ 1 , 2 ] Answer by stating the label of the chosen item.
A) 1
(1: 21 nM, 2: 1070 nM)

###

target: human recombinant PDE4B1 enzyme (Homo sapiens (Human), UniProt Q07343); assay: Inhibition of PDE4B1 activity by cAMP HTRF assay; conditions: human recombinant PDE4B1, cAMP 40 nM, pH 7.4
pIC50: −log10 of the molar value.
REPORTED_METRIC: pIC50

Past entries and their recorded results:
compound="CC#CCOC(Cn1c(C)cc(=O)cc1C)c1ccc(OC)c(OCC2CC2)c1 (stereo not shown)" tgt="human recombinant PDE4B1 enzyme (Homo sapiens (Human), UniProt Q07343)" reported_metric=pIC50 experimental_value=7.60
compound=Cc1cc(=O)cc(C)n1CC(=O)c1ccc(OC(F)F)c(OCC2CC2)c1 tgt="human recombinant PDE4B1 enzyme (Homo sapiens (Human), UniProt Q07343)" reported_metric=pIC50 experimental_value=8.54
compound=CCCOc1cc(/C=C/n2c(C)cc(=O)cc2C)ccc1OC tgt="human recombinant PDE4B1 enzyme (Homo sapiens (Human), UniProt Q07343)" reported_metric=pIC50 experimental_value=7.82
compound=COc1ccc(/C=C/n2c(C)cc(=O)cc2C)cc1OC(=O)C1CC1 tgt="human recombinant PDE4B1 enzyme (Homo sapiens (Human), UniProt Q07343)" reported_metric=pIC50 experimental_value=5.41
compound=COc1ccc(/C(=C/n2c(C)cc(=O)cc2C)c2ccccc2)cc1OCC1CC1 tgt="human recombinant PDE4B1 enzyme (Homo sapiens (Human), UniProt Q07343)" reported_metric=pIC50 experimental_value=5.77
compound=COc1ccc(/C(=C\n2c(C)cc(=O)cc2C)c2ccccc2)cc1OCC1CC1 tgt="human recombinant PDE4B1 enzyme (Homo sapiens (Human), UniProt Q07343)" reported_metric=pIC50 experimental_value=5.08

[1] Cc1cc(=O)cc(C)n1/C=C/c1ccc(OC(F)F)c(O[C@@H]2CCS(=O)(=O)C2)c1
[2] C#CCOc1cc(/C=C/n2c(C)cc(=O)cc2C)ccc1OC
[3] C#CCOc1cc(C(=O)Cn2c(C)cc(=O)cc2C)ccc1OC
[4] COc1ccc(C(=O)Cn2c(C)cc(=O)cc2C)cc1OCC(C)C
Q) Ascending by pIC50, please: list the compounds accordingly. Returns: the labels listed in the requested order.
A) 2, 3, 1, 4

###

biological target: human recombinant PDE4B1 enzyme (Homo sapiens (Human), UniProt Q07343); test: Inhibition of PDE4B1 activity by cAMP HTRF assay; conditions: human recombinant PDE4B1, cAMP 40 nM, pH 7.4
pIC50: −log10 of the molar value.
REPORTED_METRIC: pIC50

Observe how each entry below is paired with its result.
compound="COc1ccc(C(O)Cn2c(C)cc(=O)cc2C)cc1OCC1CC1 (stereo not drawn) [Example 1]" experimental_value=6.12
compound="COc1ccc(/C(Cn2c(C)cc(=O)cc2C)=N/OC[S+](C)[O-])cc1OCC1CC1 (stereo not drawn) [Example 43]" experimental_value=8.31
compound="Cc1cc(=O)cc(C)n1/C=C/c1ccc(OC(F)F)c(OC2CCSC2)c1 (stereo not drawn) [Example 96]" experimental_value=8.62
compound="Cc1cc(=O)cc(C)n1/C=C/c1ccc(OC(F)F)c(OCC[S+](C)[O-])c1 (stereo not drawn) [Example 94]" experimental_value=6.86
compound="Cc1cc(=O)cc(C)n1/C=C/c1ccc(OC(F)F)c(O[C@H]2CC[S+]([O-])C2)c1 (single isomer, unassigned) [Example 98-2]" experimental_value=7.90

[1] CC#CC(=O)OC(Cn1c(C)cc(=O)cc1C)c1ccc(OC)c(OCC2CC2)c1 (stereo not drawn) [Example 8]
[2] Cc1cc(=O)cc(C)n1/C=C/c1ccc(OC(F)F)c(OCC2CC2)c1 [Example 88]
[3] COc1ccc(/C=C/n2c(C)cc(=O)cc2C)cc1OC1CSC1 [Example 69]
[4] Cc1cc(=O)cc(C)n1/C=C/c1ccc(OC(F)F)c(OCS(C)(=O)=O)c1 [Example 92]
Q) Please put the entries in order of rising pIC50. Response field: labels, in requested order.
A) 3, 4, 1, 2
(3: 5.28, 4: 7.03, 1: 7.64, 2: 8.55)
